FYI, the data here is from ChEMBL document CHEMBL1133363.

Subject Of Test: Integrin alpha-4/beta-1 (Homo sapiens, UniProt P05556+P13612)
Sequence (P05556 whole entry): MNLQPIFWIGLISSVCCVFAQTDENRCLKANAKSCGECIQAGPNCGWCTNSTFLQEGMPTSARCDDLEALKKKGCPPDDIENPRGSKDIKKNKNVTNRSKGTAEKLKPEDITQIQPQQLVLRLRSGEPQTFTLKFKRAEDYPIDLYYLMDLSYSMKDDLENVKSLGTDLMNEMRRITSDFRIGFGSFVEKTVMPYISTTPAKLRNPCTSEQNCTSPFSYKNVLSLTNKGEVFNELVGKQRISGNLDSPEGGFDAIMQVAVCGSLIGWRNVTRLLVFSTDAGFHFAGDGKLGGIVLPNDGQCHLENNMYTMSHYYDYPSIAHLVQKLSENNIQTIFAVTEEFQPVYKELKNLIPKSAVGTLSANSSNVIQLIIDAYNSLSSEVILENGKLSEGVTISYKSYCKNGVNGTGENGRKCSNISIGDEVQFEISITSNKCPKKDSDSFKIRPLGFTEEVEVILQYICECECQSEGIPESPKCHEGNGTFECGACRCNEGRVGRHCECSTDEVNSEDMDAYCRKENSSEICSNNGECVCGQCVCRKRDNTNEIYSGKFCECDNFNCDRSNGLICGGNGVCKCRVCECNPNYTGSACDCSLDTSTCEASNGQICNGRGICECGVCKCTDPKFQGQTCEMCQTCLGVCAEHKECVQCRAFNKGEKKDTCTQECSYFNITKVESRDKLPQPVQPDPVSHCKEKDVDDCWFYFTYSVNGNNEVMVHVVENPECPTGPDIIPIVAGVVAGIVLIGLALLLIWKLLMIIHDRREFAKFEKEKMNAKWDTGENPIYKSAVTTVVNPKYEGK
Sequence (P13612 whole entry): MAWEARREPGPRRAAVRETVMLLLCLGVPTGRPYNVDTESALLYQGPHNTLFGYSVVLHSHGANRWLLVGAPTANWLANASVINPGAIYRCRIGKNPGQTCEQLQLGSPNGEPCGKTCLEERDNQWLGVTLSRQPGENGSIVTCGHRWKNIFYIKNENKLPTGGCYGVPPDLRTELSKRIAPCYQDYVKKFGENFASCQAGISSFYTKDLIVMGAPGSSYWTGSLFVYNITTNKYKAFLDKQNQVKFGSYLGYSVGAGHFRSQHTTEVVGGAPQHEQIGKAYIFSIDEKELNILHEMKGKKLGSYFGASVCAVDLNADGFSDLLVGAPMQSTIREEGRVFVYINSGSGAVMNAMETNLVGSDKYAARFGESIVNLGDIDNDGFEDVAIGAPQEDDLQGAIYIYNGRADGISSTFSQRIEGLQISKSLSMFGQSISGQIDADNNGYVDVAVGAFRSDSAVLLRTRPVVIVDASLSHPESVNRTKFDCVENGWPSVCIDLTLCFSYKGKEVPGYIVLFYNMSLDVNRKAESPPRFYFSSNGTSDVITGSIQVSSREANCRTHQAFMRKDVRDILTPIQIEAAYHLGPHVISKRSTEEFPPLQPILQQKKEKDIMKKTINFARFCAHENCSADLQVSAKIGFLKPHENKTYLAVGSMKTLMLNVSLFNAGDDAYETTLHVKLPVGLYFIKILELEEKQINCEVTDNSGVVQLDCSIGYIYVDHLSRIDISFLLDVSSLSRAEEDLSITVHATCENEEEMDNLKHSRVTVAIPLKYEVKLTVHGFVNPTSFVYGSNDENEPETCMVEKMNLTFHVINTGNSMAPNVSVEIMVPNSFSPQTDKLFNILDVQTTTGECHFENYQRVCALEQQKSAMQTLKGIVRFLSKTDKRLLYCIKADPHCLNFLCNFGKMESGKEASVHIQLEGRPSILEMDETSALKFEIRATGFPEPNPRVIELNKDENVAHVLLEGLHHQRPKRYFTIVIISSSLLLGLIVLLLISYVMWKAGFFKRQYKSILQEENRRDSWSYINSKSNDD
Assay Info: Affinity for alpha4-beta1 integrin from HL60 cell lysate
Type: cell-based, HL-60
Square brackets hold non-standard residues; d marks the D form. Peptide text beside a SMILES is read from it. Thz = O=C(O)[C@@H]1CSCN1
Assay Readout: IC50 (nM)

Please review the following examples before continuing.
>>> measurement("CC(=O)N1CSC[C@@H]1C(=O)N[C@@H](Cc1ccc(OC(=O)c2c(Cl)cccc2Cl)cc1)C(=O)O")
6
>>> measurement("CC(=O)N1CSC[C@@H]1C(=O)N[C@@H](Cc1ccc(OCc2ccccc2)cc1)C(=O)O")
25

[a] CC(=O)N1CSC[C@@H]1C(=O)N[C@@H](Cc1ccc(OCc2c(Cl)cccc2Cl)cc1)C(=O)O
[b] CC(=O)N1CSC[C@H]1C(=O)N[C@@H](Cc1ccc(O)cc1)C(=O)O (Ac-[Thz]-Tyr-OH)
Qu. Which of the two gives a bigger number for IC50: a or b ? // caller expects the label of the chosen entry
Ans. b
(b: 2740 nM, a: 5 nM)

[A] CC(=O)N1CSC[C@H]1C(=O)N[C@@H](Cc1ccc(OCc2ccccc2)cc1)C(=O)O
[B] CC(=O)N1CSC[C@@H]1C(=O)N[C@@H](Cc1ccc(OC(=O)c2ccccc2)cc1)C(=O)O
Qu. Which of the two gives a bigger number for IC50: A or B ? // caller expects the label of the chosen entry
Ans. A
(A: 220 nM, B: 4 nM)
